# Assay text: adrenalectomized assay (carrageenin edema in adrenalectomized rats)
# Format: in vivo, Adrenalectomized Sprague Dawley Male Rats
# Measurement setup: Rattus norvegicus, po, 3 h; 50 mg/kg; read-out: % Reduction (adrenalectomized rats)
Readout label: inhibition in vivo at 50 mg/kg (%)
State the answer as a number, implicitly in %.

Measured inhibition in vivo at 50 mg/kg of CC1CN2C(c3ccc(Cl)cc3)=CSC2=N1 (stereo not shown) [Compound 16] : 16

Measured inhibition in vivo at 50 mg/kg of CC1CN2C(c3ccc([N+](=O)[O-])cc3)=CSC2=N1 (stereo not shown) [Compound 17] : 60

Measured inhibition in vivo at 50 mg/kg of C1=C(c2cccc3ccccc23)N2CCN=C2S1 [Compound 10] : 18

Measured inhibition in vivo at 50 mg/kg of C1=C(c2ccccc2)N2CCN=C2S1 [Compound 1] : 32
